- measured.on: MASP-2 CCP2-SP (Homo sapiens (Human))
- Sequence (O00187 445-686): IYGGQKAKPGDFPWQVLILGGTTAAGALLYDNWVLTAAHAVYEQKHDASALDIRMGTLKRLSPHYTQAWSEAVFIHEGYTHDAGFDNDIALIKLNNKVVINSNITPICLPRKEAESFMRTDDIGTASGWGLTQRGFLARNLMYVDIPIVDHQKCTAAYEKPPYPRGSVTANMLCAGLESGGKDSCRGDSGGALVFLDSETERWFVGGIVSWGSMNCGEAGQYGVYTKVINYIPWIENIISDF
- Sequence (O00187 364-432 partner): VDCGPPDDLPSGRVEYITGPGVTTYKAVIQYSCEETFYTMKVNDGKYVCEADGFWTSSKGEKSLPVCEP
- assay.summary: MASP-2 co-crystallization, X-ray crystallography and structure analysis (H-bonds, van der Waals contacts)
- condition.set: Table A7-1; between pharmacophore elements of the bound compound
Where a name gives a salt, the structure may show the parent alone.
The entries below are paired with their reported Pharmacophore torsion angle a(H4, O1, O2, H3).
observation.type: Pharmacophore torsion angle a(H4, O1, O2, H3)

> print(dat)
                                    compound  recorded.number
 1  C[C@H](NC(=O)[C@H](N)CCc1ccccc1)C(=O)NCc1ccc(C(=N)N)cc1            44.69
 2  Cc1nc(N)ccc1CNC(=O)[C@H](C)NC(=O)[C@H]1C[C@@H](c2cccc3ccccc23)CCN1.Cl.Cl [1297_5]            47.86
 3  C[C@H](NC(=O)[C@H]1C[C@H](Cc2ccccc2)CN1)C(=O)NCc1cnc2[nH]cc(Cl)c2c1           110.57
 4  C[C@H](NC(=O)[C@H]1C[C@H](c2ccccc2)CN1)C(=O)NCc1ccc2c(N)nccc2c1            91.31
 5  Cc1nc(N)ccc1CNC(=O)[C@H](C)NC(=O)[C@H]1C[C@H](Cc2cc(-c3ccccc3)cs2)CN1 [compound 1399, Dihydrochloride]            50.25
 6  C[C@H](NC(=O)[C@H]1C[C@@H](c2ccccc2)CN1)C(=O)NCc1ccc2c(N)nccc2c1.Cl.Cl [1089_B]            89.27
 7  Cc1nc(N)ccc1CNC(=O)C(C)NC(=O)[C@H]1C[C@H](c2cccc(-c3ccccc3)c2)CN1 (stereo in doubt)            51.00
 8  CC(NC(=O)C(CCc1ccccc1)NCCCc1ccc(O)cc1)C(=O)NCc1ccc(C(=N)N)cc1.Cl.Cl (stereo not drawn)            48.71
 9  CC(NC(=O)C(CCc1ccccc1)NCc1ccc(C(=O)N2CCOCC2)cc1)C(=O)NCc1ccc(C(=N)N)cc1.Cl.Cl (stereo not drawn)            86.11
10  Cc1cc(Cl)cc(CNC(=O)[C@H](C)NC(=O)[C@H]2C[C@H](Cc3ccccc3)CN2)c1O          −163.22
11  Cc1nc(N)ccc1CNC(=O)[C@H](C)NC(=O)[C@H]1C[C@H](Cc2cccc(Cl)c2)CN1.Cl.Cl [1328_1]            55.62
12  C[C@H](NC(=O)[C@H]1C[C@@H](c2ccccc2)CCN1)C(=O)NCc1cc(Cl)ccc1O.Cl [1078_16]          −119.50
13  C[C@H](NC(=O)[C@H]1Cc2c([nH]c3ccccc23)CN1)C(=O)NCc1ccc(C(=N)N)cc1.Cl.Cl [1097_2]            91.00
14  Cc1nc(N)ccc1CNC(=O)C(C)NC(=O)C1CC(c2cccc3ccccc23)CCN1.Cl.Cl (stereo not drawn) [1297_3]            50.29
15  C[C@H](NC(=O)[C@H]1C[C@@H](c2ccccc2)CN1)C(=O)NCc1ccc(C(=N)N)cc1            57.29

These data points were gathered from patent US12195427B2.
